Kindly state protein stability index for each of the entries shown.
B1: RIPK4 (parent)
chain: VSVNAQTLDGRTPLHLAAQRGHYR

variants of: B1; experiment: protein stability index of a GFP-peptide fusion (GPS, HEK-293T) (PSI 1-6); higher = more stable; settings: c terminus: a fixed tail appended;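 also: lentivirally expressed fusions sorted by FACS into six bins by GFP to DsRed ratio, PSI derived from sequencing read proportions per bin multiplied by bin number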

May I ask what protein stability index has been recorded for A5R ? 2.94

Need protein stability index of R24P , thanks. 3.08

Name the recorded protein stability index for G21L . 2.94

Param item = H15L ; retrieve measured protein stability index. 3.24

# protein stability index lookup, item Q19N 3.41

Entry R24N : reported protein stability index = ? 2.98

Which protein stability index value is on record for T7S ? 3.29

Can you look up the measured protein stability index of G10Y for me? 2.66

May I ask what protein stability index has been recorded for D9P ? 3.49
